This collection of values is drawn from patent US20230074436A1.

Reported values of Kd for individual entries
assayed.target: human alpha-synuclein monomer (human, UniProt P37840 1-140)
experiment.description: SPR (Biacore 8K), IgG captured on anti-human Fc, aSyn monomer injected;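 further: aSyn injected as a dilution series, signal corrected against a reference cell holding an irrelevant IgG, Kd from one-to-one Langmuir kinetic fitting of kon and koff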
# output: bare number, implied unit nM

Illustrative cases are given below, each with its answer.
binder: H2_5_LC2 (antibody, V domains shown) VH: EVQLVESGGGLVQPGGSLRLSCAASGFTFSNAAMYWVRQAPGKGLELVSRIRTEPNNYATYHADSVKGRFTISRDNSKNTLYLQMNSLRAEDTAVYYCTADMATGDYWGQGTLVTVSS VL: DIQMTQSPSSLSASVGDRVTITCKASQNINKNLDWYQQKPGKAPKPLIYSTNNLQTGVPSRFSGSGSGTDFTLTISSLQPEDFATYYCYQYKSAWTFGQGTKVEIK
Kd (nM): 5.5
//
binder: HC2_L3_1 (antibody, V domains shown) VH: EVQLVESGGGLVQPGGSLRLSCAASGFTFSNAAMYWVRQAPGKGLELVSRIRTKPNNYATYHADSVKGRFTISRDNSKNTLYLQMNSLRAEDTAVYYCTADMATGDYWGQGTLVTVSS VL: DIQMTQSPSSLSASVGDRVTITCKASQNINKNLDWYQQKPGKAPKPLIYSTNNLQTGVPSRFSGSGSGTDFTLTISSLQPEDFATYYCYQDKNGWTFGQGTKVEIK
Kd (nM): 4.2
//
binder: H2_4_LC2 (antibody, V domains shown) VH: EVQLVESGGGLVQPGGSLRLSCAASGFTFSNAAMYWVRQAPGKGLELVSRIRTKRNNYATYHADSVKGRFTISRDNSKNTLYLQMNSLRAEDTAVYYCTADMATGDYWGQGTLVTVSS VL: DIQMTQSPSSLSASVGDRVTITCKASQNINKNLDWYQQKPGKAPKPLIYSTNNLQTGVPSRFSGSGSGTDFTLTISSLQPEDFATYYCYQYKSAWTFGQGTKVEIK
Kd (nM): 8.35
//
binder: HC2_L3_4 (antibody, V domains shown) VH: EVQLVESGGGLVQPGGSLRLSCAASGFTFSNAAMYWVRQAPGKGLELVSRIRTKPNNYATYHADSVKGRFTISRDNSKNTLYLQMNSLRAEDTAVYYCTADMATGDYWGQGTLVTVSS VL: DIQMTQSPSSLSASVGDRVTITCKASQNINKNLDWYQQKPGKAPKPLIYSTNNLQTGVPSRFSGSGSGTDFTLTISSLQPEDFATYYCYQDKSGWTFGQGTKVEIK
Kd (nM): 2.84

Item HC2_L2_1 (antibody, V domains shown) VH: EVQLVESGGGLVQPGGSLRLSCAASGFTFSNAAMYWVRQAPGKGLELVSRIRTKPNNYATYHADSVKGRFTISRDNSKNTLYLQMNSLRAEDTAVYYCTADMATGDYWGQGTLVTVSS VL: DIQMTQSPSSLSASVGDRVTITCKASQNINKNLDWYQQKPGKAPKPLIYSTNKLKTGVPSRFSGSGSGTDFTLTISSLQPEDFATYYCYQYKSAWTFGQGTKVEIK has what recorded Kd?
1.78
